- Measured on: Voltage-gated inwardly rectifying potassium channel KCNH2 (Homo sapiens)
- Sequence (Q12809 whole entry): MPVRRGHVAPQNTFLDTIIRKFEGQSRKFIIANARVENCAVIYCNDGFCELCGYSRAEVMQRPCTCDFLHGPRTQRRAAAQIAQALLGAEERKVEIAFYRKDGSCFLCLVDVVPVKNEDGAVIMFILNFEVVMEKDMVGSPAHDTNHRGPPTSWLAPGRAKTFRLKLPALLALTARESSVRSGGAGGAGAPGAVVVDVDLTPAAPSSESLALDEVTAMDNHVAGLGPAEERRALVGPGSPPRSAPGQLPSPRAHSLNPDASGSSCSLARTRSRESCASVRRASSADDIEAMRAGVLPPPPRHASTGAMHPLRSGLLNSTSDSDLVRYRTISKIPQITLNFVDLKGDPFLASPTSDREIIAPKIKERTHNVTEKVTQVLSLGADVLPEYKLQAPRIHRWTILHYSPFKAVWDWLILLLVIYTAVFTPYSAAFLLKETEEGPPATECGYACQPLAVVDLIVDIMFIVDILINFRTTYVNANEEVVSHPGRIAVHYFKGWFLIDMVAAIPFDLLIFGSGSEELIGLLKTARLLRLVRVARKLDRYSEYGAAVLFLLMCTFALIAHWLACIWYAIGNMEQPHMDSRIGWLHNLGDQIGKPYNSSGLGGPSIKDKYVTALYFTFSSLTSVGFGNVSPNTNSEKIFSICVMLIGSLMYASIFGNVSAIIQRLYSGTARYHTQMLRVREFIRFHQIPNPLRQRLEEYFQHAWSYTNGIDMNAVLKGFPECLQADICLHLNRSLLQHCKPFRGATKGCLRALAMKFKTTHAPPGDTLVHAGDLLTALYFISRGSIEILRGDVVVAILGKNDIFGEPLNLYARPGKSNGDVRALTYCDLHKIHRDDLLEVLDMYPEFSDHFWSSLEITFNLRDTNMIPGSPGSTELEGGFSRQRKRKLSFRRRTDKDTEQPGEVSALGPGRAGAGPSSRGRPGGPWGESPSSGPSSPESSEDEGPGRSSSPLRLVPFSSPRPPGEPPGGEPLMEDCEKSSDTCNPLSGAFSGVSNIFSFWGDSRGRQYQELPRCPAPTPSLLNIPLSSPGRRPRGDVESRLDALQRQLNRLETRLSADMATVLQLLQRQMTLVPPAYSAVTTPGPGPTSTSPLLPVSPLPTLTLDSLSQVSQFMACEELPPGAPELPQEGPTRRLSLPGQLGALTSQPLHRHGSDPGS
Metric: IC50 (µM)
The figure you give is taken to be in µM; do not add the unit.

Under Voltage-gated inwardly rectifying potassium channel KCNH2 (Homo sapiens): IC50 value of C[C@@H](c1ccc(-c2cccc(-c3noc(O)n3)c2)cc1)[C@H](N)C(=O)N1CC[C@H](F)C1.O=C(O)C(F)(F)F ? 28

* * *

Below are IC50 values measured for Dipeptidyl peptidase 4 (Homo sapiens).
Hey, just the number and the unit after it is fine.

Solved cases (8 shown):
# Mol, Metric, Meas value
measured = [
    ("C[C@@H](c1ccc(-c2cccc(-c3n[nH]c(O)n3)c2)cc1)[C@H](N)C(=O)N1CC[C@H](F)C1", "IC50", "95 nM"),
    ("C[C@@H](c1ccc(C(F)(F)F)cc1)[C@H](N)C(=O)N1CC[C@H](F)C1", "IC50", "600 nM"),
    ("CCOC(=O)c1cccc(-c2ccc([C@H](C)[C@H](N)C(=O)N3CC[C@H](F)C3)cc2)c1", "IC50", "75 nM"),
    ("COc1ccc([C@H](C)[C@H](N)C(=O)N2CC[C@H](F)C2)cc1", "IC50", "770 nM"),
    ("C[C@@H](c1ccc(-c2cccc(-c3nn[nH]n3)c2)cc1)[C@H](N)C(=O)N1CC[C@H](F)C1.O=C(O)C(F)(F)F", "IC50", "6 nM"),
    ("C[C@@H](c1ccc(-c2cccc(-n3cnnn3)c2)cc1)[C@H](N)C(=O)N1CC[C@H](F)C1", "IC50", "140 nM"),
    ("C[C@@H](c1ccc(Cl)cc1)[C@H](N)C(=O)N1CC[C@H](F)C1", "IC50", "170 nM"),
    ("C[C@@H](c1ccc(-c2ccc(NS(C)(=O)=O)cc2)cc1)[C@H](N)C(=O)N1CC[C@H](F)C1", "IC50", "710 nM"),
]

Below: the item to evaluate.
I am curious: what IC50 value has been reported for C[C@@H](c1ccc(C(=O)[n+]2ccc[nH]2)cc1)[C@H](N)C(=O)N1CC[C@H](F)C1 ? 1700 nM
